Test system: NF-κB pathway in THP-1 dual cells
Assay: THP-1 Dual Reporter Assay, NF-κB pathway (SEAP reporter)
Assay type: cell-based
Conditions: Homo sapiens, THP1-Dual, 18 h of stimulation, absorbance at 630 nm, read-out: THP1 Dual EC50 (μM) NFkB
Experimental readout: EC50

{"Smiles str": "CN1CCN(c2ccc3c(=O)c(CN(CCCn4ccnc4)Cc4ccncc4)coc3c2)CC1", "Result": "10 to 20 µM"}
{"Smiles str": "O=c1c(CN(CCCn2ccnc2)Cc2ccncc2)cnc2ccccn12", "Result": "≥ 20 µM"}

*Q* Param readout= EC50; system= NF-κB pathway in THP-1 dual cells; entry= COc1cc(CN(CCCn2ccnc2)Cc2coc3c(C)c(C)ccc3c2=O)ccn1 ; returns value.
*A* ≤ 10 µM

*Q* Param readout= EC50; system= NF-κB pathway in THP-1 dual cells; entry= O=c1c(CN(CCCc2cccnc2)Cc2ccncc2)coc2ccccc12 ; returns value.
*A* 10 to 20 µM

*Q* Param readout= EC50; system= NF-κB pathway in THP-1 dual cells; entry= Cc1ccc2c(=O)c(CN(CCCn3cnc4c(=O)[nH]cnc43)Cc3ccncc3)c(C)oc2c1C ; returns value.
*A* 10 to 20 µM

*Q* Param readout= EC50; system= NF-κB pathway in THP-1 dual cells; entry= COc1ccc(-c2cc3occ(CN(CCCn4ccnc4)Cc4ccncc4)c(=O)c3cc2F)cc1 ; returns value.
*A* ≤ 10 µM

*Q* Param readout= EC50; system= NF-κB pathway in THP-1 dual cells; entry= COc1cc(CN(CCCc2cncnc2)Cc2cn(C)c3ccccc3c2=O)ccn1 ; returns value.
*A* ≤ 10 µM

*Q* Param readout= EC50; system= NF-κB pathway in THP-1 dual cells; entry= COc1cc(CN(CCCn2cnc3ccccc32)Cc2c[nH]c3ccccc3c2=O)ccn1 ; returns value.
*A* ≥ 20 µM

*Q* Param readout= EC50; system= NF-κB pathway in THP-1 dual cells; entry= CCn1cc(CN(CCCn2ccnc2)Cc2ccncc2)c(=O)c2ccccc21 ; returns value.
*A* ≥ 20 µM

*Q* Param readout= EC50; system= NF-κB pathway in THP-1 dual cells; entry= COc1cc(CN(CCCn2ccnc2)Cc2coc3cc(O)ccc3c2=O)ccn1 ; returns value.
*A* ≥ 20 µM
